I'd appreciate it if you could supply Ki values for the items below.
# output: bare number, implied unit nM

// compound CCC(=O)Nc1cc(-c2ccoc2)nc(-c2ccoc2)n1 , assay Adenosine receptor A2b (Homo sapiens, UniProt P29275), Ki value: 49

// compound CC(=O)Nc1cc(-c2ccco2)nc(-c2ccco2)n1 , assay Adenosine receptor A2b (Homo sapiens, UniProt P29275), Ki value: 12

* * *

I'd appreciate it if you could supply inhibition values for the items below.
Biological target: Adenosine receptor A2b (Homo sapiens)
Sequence (whole entry): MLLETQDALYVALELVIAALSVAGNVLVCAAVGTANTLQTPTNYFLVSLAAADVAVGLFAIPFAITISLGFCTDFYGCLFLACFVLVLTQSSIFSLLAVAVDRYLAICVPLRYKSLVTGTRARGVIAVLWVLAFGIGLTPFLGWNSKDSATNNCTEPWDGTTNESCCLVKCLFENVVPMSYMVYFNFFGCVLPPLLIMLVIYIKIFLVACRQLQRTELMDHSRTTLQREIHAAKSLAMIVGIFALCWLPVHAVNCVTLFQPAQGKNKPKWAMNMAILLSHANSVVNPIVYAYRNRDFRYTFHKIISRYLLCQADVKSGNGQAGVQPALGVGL
Assay: Displacement of [3H]DPCPX from human adenosine A2B receptor expressed in HEK293 cells at 0.1 uM by liquid scintillation counting
Assay type: cell-based
# output: bare number, implied unit %

Measured inhibition of CCCC(=O)Nc1cc(-c2ccc(OC)cc2)nc(-c2ccc(OC)cc2)n1 : 1

Measured inhibition of CCC(=O)Nc1cc(/C=C/c2ccccc2)nc(/C=C/c2ccccc2)n1 : 2

Measured inhibition of CCCC(=O)Nc1cc(-c2ccc(F)cc2)nc(-c2ccc(F)cc2)n1 : 2

Measured inhibition of CC(=O)Nc1nc(-c2ccccc2)cc(-c2ccccc2)n1 : 6

Measured inhibition of CCCC(=O)Nc1cc(-c2cccs2)nc(-c2cccs2)n1 : 8

Measured inhibition of CC(=O)Nc1cc(-c2ccc(C)cc2)nc(-c2ccc(C)cc2)n1 : 2

* * *

Molecular target: Adenosine receptor A1 (Homo sapiens) (UniProt P30542)
Sequence (P30542 whole entry): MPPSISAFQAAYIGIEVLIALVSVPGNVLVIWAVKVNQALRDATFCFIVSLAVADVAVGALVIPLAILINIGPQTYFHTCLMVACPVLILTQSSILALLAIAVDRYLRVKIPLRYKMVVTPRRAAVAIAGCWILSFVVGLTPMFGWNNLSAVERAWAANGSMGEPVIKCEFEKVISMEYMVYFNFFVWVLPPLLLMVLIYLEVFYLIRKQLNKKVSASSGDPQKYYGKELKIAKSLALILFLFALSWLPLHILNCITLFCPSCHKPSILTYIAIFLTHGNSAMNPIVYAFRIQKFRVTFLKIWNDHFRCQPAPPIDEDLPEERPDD
Assay: Displacement of [3H]DPCPX from human adenosine A1 receptor expressed in CHO cells at 0.1 uM by liquid scintillation counting
Format: cell-based
measured parameter: inhibition
Mention the unit after the number when you answer.

Measured inhibition of CC(=O)Nc1nc(-c2ccc(F)cc2)cc(-c2ccc(F)cc2)n1 : 2%

Measured inhibition of CCCC(=O)Nc1nc(-c2ccccc2OC)cc(-c2ccccc2OC)n1 : 13%

Measured inhibition of CC(=O)Nc1nc(-c2ccsc2)cc(-c2ccsc2)n1 : 2%

Measured inhibition of CC(=O)Nc1cc(-c2cccs2)nc(-c2cccs2)n1 : 19%

Measured inhibition of CC(=O)Nc1nc(-c2ccco2)cc(-c2ccco2)n1 : 1%

Measured inhibition of CCCC(=O)Nc1nc(-c2ccoc2)cc(-c2ccoc2)n1 : 11%

* * *

Molecular target: Adenosine receptor A2b (Homo sapiens)
Test: Displacement of [3H]DPCPX from human adenosine A2B receptor expressed in HEK293 cells at 0.1 uM by liquid scintillation counting
Type: cell-based
Class MET: inhibition at least 2%. Class NOT MET: inhibition below 2%.

Is it the case that CC(=O)Nc1cc(-c2ccc(F)cc2)nc(-c2ccc(F)cc2)n1 has inhibition reaching or exceeding 2%?
NOT MET

Is it the case that CCCC(=O)Nc1cc(-c2ccc(C(C)=O)cc2)nc(-c2ccc(C(C)=O)cc2)n1 has inhibition reaching or exceeding 2%?
NOT MET

Is it the case that CCCC(=O)Nc1nc(-c2ccc(C)cc2)cc(-c2ccc(C)cc2)n1 has inhibition reaching or exceeding 2%?
MET

Is it the case that CC(=O)Nc1cc(-c2ccsc2)nc(-c2ccsc2)n1 has inhibition reaching or exceeding 2%?
MET

Is it the case that CC(=O)Nc1nc(-c2ccc3c(c2)OCO3)cc(-c2ccc3c(c2)OCO3)n1 has inhibition reaching or exceeding 2%?
NOT MET

Is it the case that CC(=O)Nc1cc(-c2ccc(C(C)=O)cc2)nc(-c2ccc(C(C)=O)cc2)n1 has inhibition reaching or exceeding 2%?
MET

Is it the case that CCCC(=O)Nc1nc(-c2ccccc2)cc(-c2ccccc2)n1 has inhibition reaching or exceeding 2%?
MET

Is it the case that CCC(=O)Nc1nc(/C=C/c2ccccc2)cc(/C=C/c2ccccc2)n1 has inhibition reaching or exceeding 2%?
NOT MET

Is it the case that CCC(=O)Nc1cc(-c2ccc(OC)cc2)nc(-c2ccc(OC)cc2)n1 has inhibition reaching or exceeding 2%?
MET

Is it the case that CC(=O)Nc1nc(-c2ccc(F)cc2)cc(-c2ccc(F)cc2)n1 has inhibition reaching or exceeding 2%?
NOT MET

Is it the case that CC(=O)Nc1nc(/C=C/c2ccccc2)cc(/C=C/c2ccccc2)n1 has inhibition reaching or exceeding 2%?
NOT MET

Is it the case that CCC(=O)Nc1nc(-c2ccc(C(F)(F)F)cc2)cc(-c2ccc(C(F)(F)F)cc2)n1 has inhibition reaching or exceeding 2%?
MET

Is it the case that CC(=O)Nc1cc(-c2cccs2)nc(-c2cccs2)n1 has inhibition reaching or exceeding 2%?
MET

Is it the case that CCCC(=O)Nc1cc(-c2ccc(SC)cc2)nc(-c2ccc(SC)cc2)n1 has inhibition reaching or exceeding 2%?
NOT MET

Is it the case that CCC(=O)Nc1cc(-c2cccs2)nc(-c2cccs2)n1 has inhibition reaching or exceeding 2%?
MET

Is it the case that CC(=O)Nc1nc(-c2ccc(C)cc2)cc(-c2ccc(C)cc2)n1 has inhibition reaching or exceeding 2%?
MET

Is it the case that CC(=O)Nc1nc(-c2cccs2)cc(-c2cccs2)n1 has inhibition reaching or exceeding 2%?
MET

Is it the case that CCC(=O)Nc1nc(-c2ccoc2)cc(-c2ccoc2)n1 has inhibition reaching or exceeding 2%?
MET

Is it the case that CCC(=O)Nc1nc(-c2ccc(OC)cc2)cc(-c2ccc(OC)cc2)n1 has inhibition reaching or exceeding 2%?
MET

Is it the case that CC(=O)Nc1cc(-c2ccc(Cl)cc2)nc(-c2ccc(Cl)cc2)n1 has inhibition reaching or exceeding 2%?
NOT MET

Is it the case that CCCC(=O)Nc1nc(-c2ccco2)cc(-c2ccco2)n1 has inhibition reaching or exceeding 2%?
MET

Is it the case that CCC(CC)C(=O)Nc1cc(-c2ccc(OC)cc2)nc(-c2ccc(OC)cc2)n1 has inhibition reaching or exceeding 2%?
MET

Is it the case that COc1ccc(-c2cc(NC(=O)C3CCCCC3)nc(-c3ccc(OC)cc3OC)n2)c(OC)c1 has inhibition reaching or exceeding 2%?
MET

Is it the case that CCC(=O)Nc1nc(-c2ccc(C)cc2)cc(-c2ccc(C)cc2)n1 has inhibition reaching or exceeding 2%?
MET

Is it the case that CCCC(=O)Nc1cc(-c2ccccc2)nc(-c2ccccc2)n1 has inhibition reaching or exceeding 2%?
NOT MET

Is it the case that COc1ccc(-c2cc(NC(C)=O)nc(-c3ccc(OC)cc3)n2)cc1 has inhibition reaching or exceeding 2%?
MET

Is it the case that CCC(=O)Nc1cc(-c2ccc(OC)cc2OC)nc(-c2ccc(OC)cc2OC)n1 has inhibition reaching or exceeding 2%?
MET

Is it the case that CC(=O)Nc1nc(-c2ccoc2)cc(-c2ccoc2)n1 has inhibition reaching or exceeding 2%?
NOT MET

Is it the case that COc1ccc(-c2cc(-c3ccc(OC)cc3OC)nc(NC(C)=O)n2)c(OC)c1 has inhibition reaching or exceeding 2%?
NOT MET

Is it the case that COc1ccc(-c2cc(NC(=O)C(C)C)nc(-c3ccc(OC)cc3OC)n2)c(OC)c1 has inhibition reaching or exceeding 2%?
NOT MET

Is it the case that CCCC(=O)Nc1nc(-c2ccc(OC)cc2OC)cc(-c2ccc(OC)cc2OC)n1 has inhibition reaching or exceeding 2%?
MET

Is it the case that CCC(=O)Nc1nc(-c2ccc(F)cc2)cc(-c2ccc(F)cc2)n1 has inhibition reaching or exceeding 2%?
NOT MET

Is it the case that CCCC(=O)Nc1cc(-c2ccoc2)nc(-c2ccoc2)n1 has inhibition reaching or exceeding 2%?
NOT MET

Is it the case that CCCC(=O)Nc1nc(-c2ccccc2F)cc(-c2ccccc2F)n1 has inhibition reaching or exceeding 2%?
MET

Is it the case that CCC(=O)Nc1cc(-c2ccc(C(F)(F)F)cc2)nc(-c2ccc(C(F)(F)F)cc2)n1 has inhibition reaching or exceeding 2%?
MET

Is it the case that COc1ccc(-c2cc(NC(=O)C(C)C)nc(-c3ccc(OC)cc3)n2)cc1 has inhibition reaching or exceeding 2%?
MET

* * *

Molecular target: Adenosine receptor A3 (Homo sapiens) (UniProt P0DMS8)
Sequence (P0DMS8 whole entry): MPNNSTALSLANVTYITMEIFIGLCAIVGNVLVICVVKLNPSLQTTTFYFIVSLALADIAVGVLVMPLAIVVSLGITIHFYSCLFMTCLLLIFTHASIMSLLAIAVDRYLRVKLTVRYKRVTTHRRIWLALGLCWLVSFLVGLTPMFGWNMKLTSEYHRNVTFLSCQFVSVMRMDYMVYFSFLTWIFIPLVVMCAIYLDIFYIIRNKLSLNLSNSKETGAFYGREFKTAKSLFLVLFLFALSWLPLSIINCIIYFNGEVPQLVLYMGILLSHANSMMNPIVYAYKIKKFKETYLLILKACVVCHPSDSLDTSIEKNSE
Assay: Displacement of [3H]NECA from human adenosine A3 receptor expressed in human HeLa cells at 0.1 uM by liquid scintillation counting
Format: cell-based
measured parameter: inhibition
Mention the unit after the number when you answer.

Measured inhibition of CC(=O)Nc1nc(-c2ccc(C(F)(F)F)cc2)cc(-c2ccc(C(F)(F)F)cc2)n1 : 10%

Measured inhibition of CCCC(=O)Nc1nc(-c2ccccc2)cc(-c2ccccc2)n1 : 17%

Measured inhibition of CCCC(=O)Nc1cc(-c2ccoc2)nc(-c2ccoc2)n1 : 3%

Measured inhibition of CCC(=O)Nc1cc(-c2ccc(C(F)(F)F)cc2)nc(-c2ccc(C(F)(F)F)cc2)n1 : 12%

Measured inhibition of CCCC(=O)Nc1cc(-c2ccsc2)nc(-c2ccsc2)n1 : 11%

Measured inhibition of CC(=O)Nc1nc(-c2ccc(C(C)=O)cc2)cc(-c2ccc(C(C)=O)cc2)n1 : 2%

Measured inhibition of COc1ccc(-c2cc(-c3ccc(OC)cc3)nc(NC(C)=O)n2)cc1 : 20%

Measured inhibition of CCCC(=O)Nc1cc(-c2ccc(SC)cc2)nc(-c2ccc(SC)cc2)n1 : 12%

Measured inhibition of CCCC(=O)Nc1cc(-c2ccc(C(F)(F)F)cc2)nc(-c2ccc(C(F)(F)F)cc2)n1 : 12%

Measured inhibition of CCC(=O)Nc1nc(-c2ccc(C(C)=O)cc2)cc(-c2ccc(C(C)=O)cc2)n1 : 17%

Measured inhibition of CCC(=O)Nc1nc(-c2ccc(F)cc2)cc(-c2ccc(F)cc2)n1 : 22%

Measured inhibition of CCC(=O)Nc1nc(-c2ccoc2)cc(-c2ccoc2)n1 : 16%

Measured inhibition of CCCC(=O)Nc1nc(-c2ccsc2)cc(-c2ccsc2)n1 : 2%

Measured inhibition of CC(=O)Nc1nc(-c2ccoc2)cc(-c2ccoc2)n1 : 1%

Measured inhibition of CCCC(=O)Nc1nc(-c2ccc(SC)cc2)cc(-c2ccc(SC)cc2)n1 : 3%

Measured inhibition of CC(=O)Nc1nc(-c2ccco2)cc(-c2ccco2)n1 : 9%

Measured inhibition of CCC(=O)Nc1nc(-c2ccc(Cl)cc2)cc(-c2ccc(Cl)cc2)n1 : 14%

Measured inhibition of CC(=O)Nc1nc(-c2cccs2)cc(-c2cccs2)n1 : 21%

Measured inhibition of COc1ccc(-c2cc(-c3ccc(OC)cc3OC)nc(NC(C)=O)n2)c(OC)c1 : 9%

Measured inhibition of CSc1ccc(-c2cc(-c3ccc(SC)cc3)nc(NC(C)=O)n2)cc1 : 14%

Measured inhibition of CCCC(=O)Nc1nc(-c2ccc(C(C)=O)cc2)cc(-c2ccc(C(C)=O)cc2)n1 : 22%

Measured inhibition of CCCC(=O)Nc1nc(-c2ccc(OC)cc2)cc(-c2ccc(OC)cc2)n1 : 15%

Measured inhibition of CCCC(=O)Nc1nc(-c2ccco2)cc(-c2ccco2)n1 : 1%

Measured inhibition of CC(=O)Nc1nc(-c2ccsc2)cc(-c2ccsc2)n1 : 1%

Measured inhibition of CCCC(=O)Nc1nc(-c2ccoc2)cc(-c2ccoc2)n1 : 21%

Measured inhibition of CC(=O)Nc1nc(-c2ccccc2)cc(-c2ccccc2)n1 : 13%

Measured inhibition of CCCC(=O)Nc1nc(-c2ccccc2F)cc(-c2ccccc2F)n1 : 15%

Measured inhibition of CCCC(=O)Nc1cc(/C=C/c2ccccc2)nc(/C=C/c2ccccc2)n1 : 25%

Measured inhibition of CCC(=O)Nc1nc(-c2ccc(OC)cc2)cc(-c2ccc(OC)cc2)n1 : 13%

Measured inhibition of CCCC(=O)Nc1nc(-c2ccc(Cl)cc2)cc(-c2ccc(Cl)cc2)n1 : 17%

Measured inhibition of CC(=O)Nc1nc(-c2ccc(Cl)cc2)cc(-c2ccc(Cl)cc2)n1 : 1%

Measured inhibition of CCC(=O)Nc1nc(-c2cccs2)cc(-c2cccs2)n1 : 21%

Measured inhibition of CCCC(=O)Nc1nc(-c2ccccc2OC)cc(-c2ccccc2OC)n1 : 18%

Measured inhibition of CC(=O)Nc1nc(-c2ccc(F)cc2)cc(-c2ccc(F)cc2)n1 : 8%

Measured inhibition of COc1ccccc1-c1cc(-c2ccccc2OC)nc(NC(C)=O)n1 : 2%

Measured inhibition of CC(=O)Nc1nc(/C=C/c2ccccc2)cc(/C=C/c2ccccc2)n1 : 4%

Measured inhibition of CCCC(=O)Nc1nc(/C=C/c2ccccc2)cc(/C=C/c2ccccc2)n1 : 12%

Measured inhibition of CC(=O)Nc1nc(-c2ccccc2F)cc(-c2ccccc2F)n1 : 15%

Measured inhibition of CCC(=O)Nc1nc(-c2ccc(C(F)(F)F)cc2)cc(-c2ccc(C(F)(F)F)cc2)n1 : 2%

Measured inhibition of CCC(=O)Nc1nc(-c2ccc(OC)cc2OC)cc(-c2ccc(OC)cc2OC)n1 : 17%

Measured inhibition of CCCC(=O)Nc1nc(-c2ccc(OC)cc2OC)cc(-c2ccc(OC)cc2OC)n1 : 1%

Measured inhibition of CCC(=O)Nc1nc(-c2ccccc2OC)cc(-c2ccccc2OC)n1 : 22%

Measured inhibition of CCCC(=O)Nc1nc(-c2cccs2)cc(-c2cccs2)n1 : 24%

Measured inhibition of CCCC(=O)Nc1nc(-c2ccc(F)cc2)cc(-c2ccc(F)cc2)n1 : 27%

Measured inhibition of CCCC(=O)Nc1nc(-c2ccc(C(F)(F)F)cc2)cc(-c2ccc(C(F)(F)F)cc2)n1 : 2%
